- Tested on: cleaved PARP in H460 cells
- procedure.text: PARP cleavage flow cytometry, H460
- Format: cell-based, human
- recorded.conditions: H460, IC90 doses, 120 h
Recorded cells with cleaved PARP values for a group of molecules are listed next.
Give the value in % but do not write % after it.

sample.smiles: Cc1ccc([N+](=O)[O-])c2c(NCCCN(C)CCCNc3ccc4ncn5c6ccccc6c(=O)c3c45)c3ccccc3nc12
study.system: cleaved PARP in H460 cells
experimental.endpoint: cells with cleaved PARP
measured.result: 43.3

Read off the recorded cells with cleaved PARP for Cc1ccc([N+](=O)[O-])c2c(NCCCN(C)CCCNc3ccc4ncn5c6ccc(O)cc6c(=O)c3c45)c3ccccc3nc12 28.2
